# System: PDC KRAS tumor spheroids with HUVEC/MSC, viability
# TEST_DESCRIPTION: Anticancer human tumor 349418-098-R-PDC patient-derived lung adenocarcinoma cell line growth inhibition [KRAS2]
# CONDITION_INFO: compound 0.00316 µM; stronger effect = lower value
ASSAY_READOUT: viability, T/C

CC(=O)Nc1cccc(-n2c(=O)n(C3CC3)c(=O)c3c(Nc4ccc(I)cc4F)n(C)c(=O)c(C)c32)c1 :: 13.8% [middle of 5 runs]
CC(C)n1nc(-c2ccc3oc(N)nc3c2)c2c(N)ncnc21 :: 17.1% [middle of 5 runs]
CCN1CCN(Cc2ccc(Nc3ncc(F)c(-c4cc(F)c5nc(C)n(C(C)C)c5c4)n3)nc2)CC1 :: 60.9% [middle of 5 runs]

With those in mind, consider the next compound.
query: I would be grateful if you could share the reported viability, T/C for "Cn1ncnc1[C@H]1c2n[nH]c(=O)c3cc(F)cc(c23)N[C@@H]1c1ccc(F)cc1" .
result: 96.4% [middle of 5 runs]

====

# Test system: PDC KRAS tumor spheroids with HUVEC/MSC, viability
# TEST_DESCRIPTION: Anticancer human tumor 349418-098-R-PDC cell line growth inhibition [KRAS2];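 note: spheroids exposed to compounds for seven days before readout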
# CONDITION_INFO: curve of first compound; second compound 0.316 µM
ASSAY_READOUT: pIC50
In simple prose, pIC50 is minus the logarithm base ten of a concentration in moles per litre.

Worked examples, 8 molecules total:
Cn1nccc1Nc1nccc(-c2cc3c(s2)C(C)(C)N(CCN2CCOCC2)C3=O)n1 + CC1OCC2(CCN(c3cnc(Sc4ccnc(N)c4Cl)c(N)n3)CC2)C1N :: 7.35
CC1COCCN1c1cc(-c2ccnn2C)c2ccnc(-c3ccn[nH]3)c2n1 (stereo unspecified) + COc1cc2nc(C)nc(NC(C)c3cc(N)cc(C(F)(F)F)c3)c2cc1OC1CCOC1 :: 7.36
CC(C)n1nc(-c2ccc3oc(N)nc3c2)c2c(N)ncnc21 + CC1OCC2(CCN(c3cnc(Sc4ccnc(N)c4Cl)c(N)n3)CC2)C1N :: 9.06
CC(C)NCC(C(=O)N1CCN(c2ncnc3c2C(C)CC3O)CC1)c1ccc(Cl)cc1 (stereo unspecified) + COc1cc2nc(C)nc(NC(C)c3cc(N)cc(C(F)(F)F)c3)c2cc1OC1CCOC1 :: 6.57
CCNC(=O)CC1N=C(c2ccc(Cl)cc2)c2cc(OC)ccc2-n2c(C)nnc21 (stereo unspecified) + CNCc1ccccc1-c1csc(C(C)Nc2nc(C)nc3cc(OC)c(OC)cc23)c1 :: 6.91
CCN1CCN(Cc2ccc(Nc3ncc(F)c(-c4cc(F)c5nc(C)n(C(C)C)c5c4)n3)nc2)CC1 + CNCc1ccccc1-c1csc(C(C)Nc2nc(C)nc3cc(OC)c(OC)cc23)c1 :: 8.43
CCNC(=O)CC1N=C(c2ccc(Cl)cc2)c2cc(OC)ccc2-n2c(C)nnc21 (stereo unspecified) + C=CC(=O)N1CCN(c2nc(OCC3CCCN3C)nc3c2CCN(c2cccc4cccc(C)c24)C3)CC1CC#N :: 6.73
COC(=O)c1ccc2c(C(=Nc3ccc(N(C)C(=O)CN4CCN(C)CC4)cc3)c3ccccc3)c(O)[nH]c2c1 + C=CC(=O)N1CCN(c2nc(=O)n(-c3c(C)ccnc3C(C)C)c3nc(-c4c(O)cccc4F)c(F)cc23)C(C)C1 :: 6.65

Could you now consider this next molecule?
query: Can you share its pIC50? I mean this molecule: CC1(C)CCC(CN2CCN(c3ccc(C(=O)NS(=O)(=O)c4ccc(NCC5CCOCC5)c([N+](=O)[O-])c4)c(Oc4cnc5[nH]ccc5c4)c3)CC2)=C(c2ccc(Cl)cc2)C1 + C=CC(=O)N1CCN(c2nc(=O)n(-c3c(C)ccnc3C(C)C)c3nc(-c4c(O)cccc4F)c(F)cc23)C(C)C1
result: 5.75

====

# Test system: PDC KRAS tumor spheroids with HUVEC/MSC, viability
# TEST_DESCRIPTION: Anticancer human tumor 349418-098-R-PDC cell line growth inhibition [KRAS2];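 note: spheroids exposed to compounds for seven days before readout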
# CONDITION_INFO: second compound 10 µM; first compound 0.00316 µM; stronger effect = lower value
Consider the following molecules and their measured viability, T/C readings.
Hi! Could you send only the number? It should be in %, unit omitted.

Record excerpt, results attached:
CC(C)n1nc(-c2ccc3oc(N)nc3c2)c2c(N)ncnc21 + CC1OCC2(CCN(c3cnc(Sc4ccnc(N)c4Cl)c(N)n3)CC2)C1N :: 15
CC(=O)Nc1cccc(-n2c(=O)n(C3CC3)c(=O)c3c(Nc4ccc(I)cc4F)n(C)c(=O)c(C)c32)c1 + C=CC(=O)N1CCN(c2nc(=O)n(-c3c(C)ccnc3C(C)C)c3nc(-c4c(O)cccc4F)c(F)cc23)C(C)C1 :: 15.9

From here, focus on the item given below.
query: Please give the measured viability, T/C for this molecule: Cn1ncnc1[C@H]1c2n[nH]c(=O)c3cc(F)cc(c23)N[C@@H]1c1ccc(F)cc1 + CC1OCC2(CCN(c3cnc(Sc4ccnc(N)c4Cl)c(N)n3)CC2)C1N
result: 76.7

====

# Tested on: PDC KRAS tumor spheroids with HUVEC/MSC, viability
# TEST_DESCRIPTION: Anticancer human tumor 349418-098-R-PDC cell line growth inhibition [KRAS2];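 note: spheroids exposed to compounds for seven days before readout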
# CONDITION_INFO: second compound 3.16 µM; first compound 0.1 µM; stronger effect = lower value
Rule: measured viability, T/C below 60% gets criterion met; anything equal to or greater than 60% gets criterion not met.

Would you please look over these solved cases?
Cn1ncnc1[C@H]1c2n[nH]c(=O)c3cc(F)cc(c23)N[C@@H]1c1ccc(F)cc1 + CNCc1ccccc1-c1csc(C(C)Nc2nc(C)nc3cc(OC)c(OC)cc23)c1 :: criterion met
COc1cc2nccc(Oc3ccc(NC(=O)C4(C(=O)Nc5ccc(F)cc5)CC4)cc3)c2cc1OC + CNCc1ccccc1-c1csc(C(C)Nc2nc(C)nc3cc(OC)c(OC)cc23)c1 :: criterion met
COC(=O)c1ccc2c(C(=Nc3ccc(N(C)C(=O)CN4CCN(C)CC4)cc3)c3ccccc3)c(O)[nH]c2c1 + C=CC(=O)N1CCN(c2nc(=O)n(-c3c(C)ccnc3C(C)C)c3nc(-c4c(O)cccc4F)c(F)cc23)C(C)C1 :: criterion met
CC1(C)CCC(CN2CCN(c3ccc(C(=O)NS(=O)(=O)c4ccc(NCC5CCOCC5)c([N+](=O)[O-])c4)c(Oc4cnc5[nH]ccc5c4)c3)CC2)=C(c2ccc(Cl)cc2)C1 + C=CC(=O)N1CCN(c2nc(OCC3CCCN3C)nc3c2CCN(c2cccc4cccc(C)c24)C3)CC1CC#N :: criterion met

query: Please check: viability, T/C for CC(=O)OC12COC1CC(O)C1(C)C(=O)C(O)C3=C(C)C(OC(=O)C(O)C(NC(=O)OC(C)(C)C)c4ccccc4)CC(O)(C(OC(=O)c4ccccc4)C21)C3(C)C (stereo not given) + CC1OCC2(CCN(c3cnc(Sc4ccnc(N)c4Cl)c(N)n3)CC2)C1N , strictly under 60% or not?
result: criterion met

query: Another molecule to look at: CC(C)NCC(C(=O)N1CCN(c2ncnc3c2C(C)CC3O)CC1)c1ccc(Cl)cc1 (stereo not given) + C=CC(=O)N1CCN(c2nc(OCC3CCCN3C)nc3c2CCN(c2cccc4cccc(C)c24)C3)CC1CC#N
result: criterion met

query: And the next one, CC1OCC2(CCN(c3cnc(Sc4ccnc(N)c4Cl)c(N)n3)CC2)C1N (stereo not given) + CNCc1ccccc1-c1csc(C(C)Nc2nc(C)nc3cc(OC)c(OC)cc23)c1 ?
result: criterion met

query: Also check O=C(c1cc(Cc2n[nH]c(=O)c3ccccc23)ccc1F)N1CCN(C(=O)C2CC2)CC1 + COc1cc2nc(C)nc(NC(C)c3cc(N)cc(C(F)(F)F)c3)c2cc1OC1CCOC1
result: criterion not met

query: Input COC(=O)c1ccc2c(C(=Nc3ccc(N(C)C(=O)CN4CCN(C)CC4)cc3)c3ccccc3)c(O)[nH]c2c1 + COc1cc2nc(C)nc(NC(C)c3cc(N)cc(C(F)(F)F)c3)c2cc1OC1CCOC1
result: criterion not met

query: Now try CCN1CCN(Cc2ccc(Nc3ncc(F)c(-c4cc(F)c5nc(C)n(C(C)C)c5c4)n3)nc2)CC1 + C=CC(=O)N1CCN(c2nc(=O)n(-c3c(C)ccnc3C(C)C)c3nc(-c4c(O)cccc4F)c(F)cc23)C(C)C1 .
result: criterion met

====

# System: PDC KRAS tumor spheroids with HUVEC/MSC, viability
# TEST_DESCRIPTION: Anticancer human tumor 349418-098-R-PDC cell line growth inhibition [KRAS2];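 note: spheroids exposed to compounds for seven days before readout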
# CONDITION_INFO: second compound 0.316 µM; first compound 0.0316 µM; stronger effect = lower value
Flag rule - viability, T/C less than 70% flags TRUE; the remaining entries get FALSE.

Some entries whose results are on file:
Cn1nccc1Nc1nccc(-c2cc3c(s2)C(C)(C)N(CCN2CCOCC2)C3=O)n1 + COc1cc2nc(C)nc(NC(C)c3cc(N)cc(C(F)(F)F)c3)c2cc1OC1CCOC1 :: TRUE
COC(=O)c1ccc2c(C(=Nc3ccc(N(C)C(=O)CN4CCN(C)CC4)cc3)c3ccccc3)c(O)[nH]c2c1 + CC1OCC2(CCN(c3cnc(Sc4ccnc(N)c4Cl)c(N)n3)CC2)C1N :: FALSE
Cn1nccc1Nc1nccc(-c2cc3c(s2)C(C)(C)N(CCN2CCOCC2)C3=O)n1 + C=CC(=O)N1CCN(c2nc(=O)n(-c3c(C)ccnc3C(C)C)c3nc(-c4c(O)cccc4F)c(F)cc23)C(C)C1 :: FALSE
CC(C)n1nc(-c2ccc3oc(N)nc3c2)c2c(N)ncnc21 + C=CC(=O)N1CCN(c2nc(OCC3CCCN3C)nc3c2CCN(c2cccc4cccc(C)c24)C3)CC1CC#N :: TRUE

Let us examine a further case.
query: Please let me know if CC(C)n1nc(-c2ccc3oc(N)nc3c2)c2c(N)ncnc21 + COc1cc2nc(C)nc(NC(C)c3cc(N)cc(C(F)(F)F)c3)c2cc1OC1CCOC1 shows viability, T/C below 70%.
result: TRUE

FYI, the data here is from PubChem BioAssay AID1963866.
